Reported pKi values for the following compounds.
target: cloned human CCR8 receptor stably expressed in L1.2 cells (Homo sapiens); construct: expressed in transfected cells; test: whole cell binding screen: inhibition of biotinylated human I309 binding to CCR8 (FMAT 8100 HTS); conditions: L1.2/hCCR8 cells, biotinylated human I-309, 10 point concentration response starting at 10 μM; read-out: Ki of compounds to inhibit I-309 binding to CCR8
Sequence (P51685 whole entry): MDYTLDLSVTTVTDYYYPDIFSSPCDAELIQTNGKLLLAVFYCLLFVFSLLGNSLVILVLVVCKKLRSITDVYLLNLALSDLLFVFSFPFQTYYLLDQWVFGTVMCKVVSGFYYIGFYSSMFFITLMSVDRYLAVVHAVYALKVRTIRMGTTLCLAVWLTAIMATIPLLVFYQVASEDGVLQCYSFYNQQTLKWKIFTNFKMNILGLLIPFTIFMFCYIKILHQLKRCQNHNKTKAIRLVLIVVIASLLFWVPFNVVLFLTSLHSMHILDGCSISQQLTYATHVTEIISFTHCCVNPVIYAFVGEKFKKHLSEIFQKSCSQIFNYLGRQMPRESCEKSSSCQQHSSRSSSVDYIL
pKi: −log10 of the molar value.

Examples with answers:
Compound	pKi
CN(C)C(=O)N1CCC(NS(=O)(=O)c2ccc(C(=O)N(C)C3CCCCC3)c3ccccc23)CC1	> 6.30
CCOC(=O)N1CCC(NS(=O)(=O)c2cccc3c(NC(=O)c4ccco4)cccc23)CC1	> 6.30
CCOC(=O)N1CC[C@H](NS(=O)(=O)c2ccc(NC(=O)c3cccnc3C)c3ccccc23)[C@@H](C)C1 (racemic)	> 6.30

Give the reported value of pKi for this record: "COc1ccc(NS(=O)(=O)c2ccc3cccc(NC(=O)c4ccccc4)c3c2)cc1"
> 6.30
